study_system: UniProtKB P47820
experiment_notes: In vitro inhibitory activity against rat serum angiotensin I converting enzyme using hippuryl-glycyl-glycine as substrate
pIC50: −log10 of the molar value.
property_measured: pIC50

A. CCN(CC(=O)NO)C(=O)C1CCCCC1C(=O)O (cis isomer)
B. CCN(CC(=O)NO)C(=O)C1CCCCC1C(=O)O (trans isomer)
Query :: Between A and B , which one has the lower reported pIC50 value? Label of pick, please.
Result :: A

A. O=C(CNC(=O)C1CCCCC1C(=O)O)NO (trans isomer)
B. CCCN(CC(=O)NO)C(=O)C1CCCCC1C(=O)O (cis isomer)
C. O=C(O)C1CCCCC1C(=O)NCCS (stereo in doubt; 8b)
D. CN(CC(=O)NO)C(=O)C1CCCCC1C(=O)O (stereo in doubt; 16b)
Query :: Sort entries by pIC50 from minimum to maximum value. Ranked list of labels, please, in the requested order.
Result :: C, A, B, D

1. CC(CC(=O)NO)C(=O)N1CCC[C@H]1C(=O)O (stereo partly drawn)
2. CN(CC(=O)NO)C(=O)C1CCCCC1C(=O)O (stereo in doubt; 21b)
Query :: Between 1 and 2 , whose measured pIC50 reads higher? Label of pick, please.
Result :: 1

---

study_system: Angiotensin-converting enzyme (Rattus norvegicus, UniProt P47820)
experiment_notes: In vitro inhibitory activity against rat serum angiotensin I converting enzyme using hippuryl-glycyl-glycine as substrate
pIC50: −log10 of the molar value.
property_measured: pIC50

Query :: Would you mind telling me what pIC50 value was observed for CN(CC(=O)NOCc1ccccc1)C(=O)C1CCCCC1C(=O)O (stereo in doubt; 9e) ?
Result :: < 3.82

---

// pIC50 lookup, one value per entry
study_system: Angiotensin-converting enzyme (Rattus norvegicus, UniProt P47820)
Sequence (P47820 whole entry): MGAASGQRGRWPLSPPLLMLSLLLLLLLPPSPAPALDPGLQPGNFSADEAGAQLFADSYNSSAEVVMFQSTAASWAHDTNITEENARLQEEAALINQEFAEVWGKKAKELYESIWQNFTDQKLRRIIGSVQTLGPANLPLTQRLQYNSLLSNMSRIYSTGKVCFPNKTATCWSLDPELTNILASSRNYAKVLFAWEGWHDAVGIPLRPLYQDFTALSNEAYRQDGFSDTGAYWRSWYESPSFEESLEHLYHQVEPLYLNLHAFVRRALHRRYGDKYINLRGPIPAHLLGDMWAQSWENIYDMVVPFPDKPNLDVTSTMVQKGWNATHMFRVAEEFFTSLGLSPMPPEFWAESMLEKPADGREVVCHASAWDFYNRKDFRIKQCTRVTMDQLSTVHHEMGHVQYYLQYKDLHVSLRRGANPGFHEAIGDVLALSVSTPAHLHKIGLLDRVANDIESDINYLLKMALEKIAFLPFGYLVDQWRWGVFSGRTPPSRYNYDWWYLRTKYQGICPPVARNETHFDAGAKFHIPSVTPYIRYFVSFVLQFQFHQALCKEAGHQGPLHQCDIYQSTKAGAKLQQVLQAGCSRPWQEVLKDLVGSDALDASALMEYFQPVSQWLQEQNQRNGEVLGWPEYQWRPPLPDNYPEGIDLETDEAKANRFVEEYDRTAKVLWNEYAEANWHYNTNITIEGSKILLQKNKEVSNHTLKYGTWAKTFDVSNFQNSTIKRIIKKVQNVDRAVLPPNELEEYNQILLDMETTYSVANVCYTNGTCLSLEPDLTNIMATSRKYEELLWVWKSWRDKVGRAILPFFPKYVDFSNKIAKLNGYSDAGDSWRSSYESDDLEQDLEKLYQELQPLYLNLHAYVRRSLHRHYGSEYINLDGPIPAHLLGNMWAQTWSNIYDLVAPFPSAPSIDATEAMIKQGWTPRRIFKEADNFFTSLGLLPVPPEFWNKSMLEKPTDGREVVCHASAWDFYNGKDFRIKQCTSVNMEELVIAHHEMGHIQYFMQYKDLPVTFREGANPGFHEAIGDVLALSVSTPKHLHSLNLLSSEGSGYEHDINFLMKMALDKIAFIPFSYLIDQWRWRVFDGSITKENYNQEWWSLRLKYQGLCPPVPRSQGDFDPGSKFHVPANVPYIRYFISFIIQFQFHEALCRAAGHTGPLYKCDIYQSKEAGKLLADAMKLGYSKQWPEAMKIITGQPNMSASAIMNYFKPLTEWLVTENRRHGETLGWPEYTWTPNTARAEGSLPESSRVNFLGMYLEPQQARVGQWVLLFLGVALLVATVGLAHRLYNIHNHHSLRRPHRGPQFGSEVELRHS
experiment_notes: In vitro inhibitory activity against rat serum angiotensin I converting enzyme using hippuryl-glycyl-glycine as substrate
pIC50: −log10 of the molar value.

Example entries and their recorded answers appear below.
compound="CN(CC(=O)O)C(=O)C1CCCCC1C(=O)O (cis isomer)" property_measured=pIC50 observed_value="< 3.82"
compound="CCCN(CC(=O)O)C(=O)C1CCCCC1C(=O)O (centres undefined)" property_measured=pIC50 observed_value="< 3.82"
compound="CN(CC(=O)NOCc1ccccc1)C(=O)C1CCCC1C(=O)O (centres undefined)" property_measured=pIC50 observed_value="< 3.82"
compound="CCN(CC(=O)NOCc1ccccc1)C(=O)C1CCCCC1C(=O)O (trans isomer)" property_measured=pIC50 observed_value="< 3.82"
compound="O=C(O)CNC(=O)C1CCCCC1C(=O)O (centres undefined)" property_measured=pIC50 observed_value="< 3.82"
compound="CCN(CC(=O)NOCc1ccccc1)C(=O)C1CCCCC1C(=O)O (cis isomer)" property_measured=pIC50 observed_value="< 3.82"
compound="O=C(CNC(=O)C1CCCCC1C(=O)O)NOCc1ccccc1 (stereo in doubt; 9b)" property_measured=pIC50 observed_value="< 3.82"
compound="O=C(O)C1CCCCC1C(=O)NCCS (trans isomer)" property_measured=pIC50 observed_value="< 3.82"

Now look at this entry.
Query :: Notebook: pull reported pIC50 for Angiotensin-converting enzyme (Rattus norvegicus, UniProt P47820), entry CCN(CC(=O)O)C(=O)C1CCCC1C(=O)O (cis isomer)
Result :: < 3.82

Data origin: ChEMBL document CHEMBL1126616
